Read-out: Monokine induced gamma interferon (MIG), CXCL9 (gene 4283)
Assay: BSK_hDFCGF_MIG: BioMAP Diversity Plus: hDFCGF Assay for Monokine induced gamma interferon (MIG) Biomarker Activity (AID 2283063)
Conditions: primary human foreskin fibroblasts; actives raise or lower the signal
Protocol: BSK_hDFCGF is a cell-based, multiplexed-readout assay that uses foreskin fibroblast, a human skin primary cell, with measurements taken at 24 hours after chemical dosing in a 96-well plate.BSK_hDFCGF_MIG is an assay component measured in the BSK_hDFCGF assay. It measures MIG antibody related to regulation of gene expression using ELISA technology.Data from the assay component BSK_hDFCGF_MIG was analyzed into 1 assay endpoint. […]
Active and inactive are the calls of the source. Rule for the calls: active = hit-call score of the fitted dose curve at least 0.9, where 1 is the maximum; inactive = score below 0.9.
// allowed return values: y (active), n (inactive)

Query :: Returns: the outcome recorded for `Cn1c(=O)cc(Oc2ccc(F)cc2F)c2cnc(NCC(C)(C)O)nc21` in this assay.
Result :: n

Query :: Returns: the outcome recorded for `CCN(C(=O)c1cc(C)cc(OC[C@H](C)Nc2ccncc2)c1)C(C)C` in this assay.
Result :: n

Query :: Returns: the outcome recorded for `C1N2CN3CN1CN(C2)C3` in this assay.
Result :: n

Query :: Returns: the outcome recorded for `Cc1ccc(S(=O)(=O)O)cc1C` in this assay.
Result :: n

Query :: Returns: the outcome recorded for `COc1cccc(-c2ccc(/C=C\CN3CCCCCC3)cc2Cl)c1` in this assay.
Result :: y

Query :: Returns: the outcome recorded for CC(C)=CCCC(C)CCO (stereo not drawn) in this assay.
Result :: n

Query :: Returns: the outcome recorded for `CC(C)=CCC/C(C)=C\CO` in this assay.
Result :: n

Query :: Returns: the outcome recorded for `Cc1ccc(O)cc1` in this assay.
Result :: n

Query :: Returns: the outcome recorded for Fc1ccccc1[C@@H](F)COC1CCC(Nc2ncnc3[nH]ncc23)CC1 (stereo partly drawn) in this assay.
Result :: n

Query :: Returns: the outcome recorded for CC/C(=C\C(=N/O)C(N)=O)C(C)[N+](=O)[O-] (stereo not drawn) in this assay.
Result :: n

Query :: Returns: the outcome recorded for `CCCN(C1CCN(C(=O)C2CCNCC2)CC1)[C@@H]1CCc2ccc(OC)cc2C1` in this assay.
Result :: n

Query :: Returns: the outcome recorded for `CNCc1ccc(NC(=O)c2c[nH]c3c2C(=O)CCC3)cc1` in this assay.
Result :: n

Query :: Returns: the outcome recorded for `On1ccccc1=S` in this assay.
Result :: y

---

Read-out: Transforming growth factor beta 1 (TGFb1), TGFB1 (gene 7040)
Experiment: BSK_BE3C_TGFb1: BioMAP Diversity Plus: BE3C Assay for Transforming growth factor beta 1 (TGFb1) Biomarker Activity (AID 2283036;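 for outcome: TGF-b1 protein level measured by ELISA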)
Details: primary human bronchial epithelial cells; actives raise or lower the signal
The source made the active and inactive calls. How the source made its calls: active means hit-call score of the fitted dose curve at least 0.9, where 1 is the maximum; inactive means score below 0.9.
// allowed return values: yes for active, no for inactive

Query :: Returns: the outcome recorded for `O=C(OC[C@H]1O[C@@H](OC(=O)c2cc(O)c(O)c(OC(=O)c3cc(O)c(O)c(O)c3)c2)[C@H](OC(=O)c2cc(O)c(O)c(OC(=O)c3cc(O)c(O)c(O)c3)c2)[C@@H](OC(=O)c2cc(O)c(O)c(OC(=O)c3cc(O)c(O)c(O)c3)c2)[C@@H]1OC(=O)c1cc(O)c(O)c(OC(=O)c2cc(O)c(O)c(O)c2)c1)c1cc(O)c(O)c(OC(=O)c2cc(O)c(O)c(O)c2)c1` in this assay.
Result :: yes

Query :: Returns: the outcome recorded for `O=C(O)c1cc(N=Nc2ccc(S(=O)(=O)Nc3ccccn3)cc2)ccc1O` in this assay.
Result :: no

Query :: Returns: the outcome recorded for `Nc1ccc(Nc2ccccc2)cc1` in this assay.
Result :: no

Query :: Returns: the outcome recorded for `CCCN(C1CCN(C(=O)C2CCNCC2)CC1)[C@@H]1CCc2ccc(OC)cc2C1` in this assay.
Result :: no

Query :: Returns: the outcome recorded for `CC(C)=CCC/C(C)=C/CO` in this assay.
Result :: no

Query :: Returns: the outcome recorded for `O=C(NS(=O)(=O)/C=C/c1ccccc1)c1ccc(F)cc1Cl` in this assay.
Result :: no

Query :: Returns: the outcome recorded for `CC(C)=CCC/C(C)=C\CO` in this assay.
Result :: no

Query :: Returns: the outcome recorded for `CC[C@H]1OC(=O)[C@H](C)[C@@H](O[C@H]2C[C@@](C)(OC)[C@@H](O)[C@H](C)O2)[C@H](C)[C@@H](O[C@@H]2O[C@H](C)C[C@H](N(C)C)[C@H]2O)[C@](C)(O)C[C@@H](C)C(=O)[C@H](C)[C@@H](O)[C@]1(C)O` in this assay.
Result :: no

Query :: Returns: the outcome recorded for `CCCC(=O)OCC` in this assay.
Result :: no

Query :: Returns: the outcome recorded for `COCCOc1cc2cc(C(=O)NC3CCN(C(C)C)CC3)n(CC(=O)Nc3ccc(Cl)cn3)c2cn1` in this assay.
Result :: no

Query :: Returns: the outcome recorded for `O=C(O)c1cccc(N(Cc2cccnc2)c2ccc(OC(F)F)c(OC(F)F)c2)c1` in this assay.
Result :: no

Query :: Returns: the outcome recorded for `COCCOCCOCCOC` in this assay.
Result :: no

Query :: Returns: the outcome recorded for COc1ccc(-n2nc(C(F)F)cc2-c2ccc(S(C)=O)cc2)cc1 (stereo not given) in this assay.
Result :: no

Query :: Returns: the outcome recorded for `CCC(C)(C)C(=O)O[C@H]1C[C@@H](C)C=C2C=C[C@H](C)[C@H](CC[C@@H]3C[C@@H](O)CC(=O)O3)[C@H]21` in this assay.
Result :: yes

Query :: Returns: the outcome recorded for `CCOCCOCCOCCO` in this assay.
Result :: no

Query :: Returns: the outcome recorded for CCOC(=O)c1ccc(C2CCC(NC[C@H](O)COc3ccc(O)c(NS(C)(=O)=O)c3)CC2)cc1 (stereo not given in full) in this assay.
Result :: no

Query :: Returns: the outcome recorded for `CCN(C(=O)c1cc(C)cc(OC[C@H](C)Nc2ccncc2)c1)C(C)C` in this assay.
Result :: no

Query :: Returns: the outcome recorded for `CC(=O)c1ccc2c(c1)[C@H](NC(=O)c1ccc(F)cc1)[C@@H](O)C(C)(C)O2` in this assay.
Result :: no

Query :: Returns: the outcome recorded for `CCCCCCCCCCCCc1ccccc1` in this assay.
Result :: no

Query :: Returns: the outcome recorded for `Cn1c(=O)cc(Oc2ccc(F)cc2F)c2cnc(NCC(C)(C)O)nc21` in this assay.
Result :: no
